Collected rGABA-gated Cl− channel % inh @10 μM values appear next to each entry.
System: rGABA-gated Cl− channel
test.details: GABA-Gated Cl Channel Antagonist Radioligand Binding Assay
Parameters: species or system rat
run.conditions: 10 μM single point, [35S]-TBPS, cerebral cortex membrane homogenates
Respond numerically; units are % and should not be typed.

Query block: Lab note: need rGABA-gated Cl− channel % inh @10 μM for CN1CC[C@H](Oc2ccc(N3C(=S)N(c4cnc(C#N)c(C(F)(F)F)c4)C(=O)C34CCC4)cc2)[C@H](F)C1 (racemic) [Cpd 102] on rGABA-gated Cl− channel, anyone have it?
Result block: 52.1

Query block: Param item: N#Cc1ncc(N2C(=O)C3(CCC3)N(c3ccc(OC4CCNCC4)cc3)C2=S)cc1Cl [Cpd 44]
Result block: −0.5

Query block: Request: N#Cc1ncc(N2C(=O)C3(CCC3)N(c3ccc(C4=CCCC(CO)O4)cc3)C2=S)cc1C(F)(F)F (stereo not drawn) [Cpd 103]
Result block: 82.7

----------
tgt: F876L mutant Androgen Receptor (AR-F876L) (Homo sapiens (Human), UniProt P10275, F877L)
Sequence (P10275 whole entry F877L): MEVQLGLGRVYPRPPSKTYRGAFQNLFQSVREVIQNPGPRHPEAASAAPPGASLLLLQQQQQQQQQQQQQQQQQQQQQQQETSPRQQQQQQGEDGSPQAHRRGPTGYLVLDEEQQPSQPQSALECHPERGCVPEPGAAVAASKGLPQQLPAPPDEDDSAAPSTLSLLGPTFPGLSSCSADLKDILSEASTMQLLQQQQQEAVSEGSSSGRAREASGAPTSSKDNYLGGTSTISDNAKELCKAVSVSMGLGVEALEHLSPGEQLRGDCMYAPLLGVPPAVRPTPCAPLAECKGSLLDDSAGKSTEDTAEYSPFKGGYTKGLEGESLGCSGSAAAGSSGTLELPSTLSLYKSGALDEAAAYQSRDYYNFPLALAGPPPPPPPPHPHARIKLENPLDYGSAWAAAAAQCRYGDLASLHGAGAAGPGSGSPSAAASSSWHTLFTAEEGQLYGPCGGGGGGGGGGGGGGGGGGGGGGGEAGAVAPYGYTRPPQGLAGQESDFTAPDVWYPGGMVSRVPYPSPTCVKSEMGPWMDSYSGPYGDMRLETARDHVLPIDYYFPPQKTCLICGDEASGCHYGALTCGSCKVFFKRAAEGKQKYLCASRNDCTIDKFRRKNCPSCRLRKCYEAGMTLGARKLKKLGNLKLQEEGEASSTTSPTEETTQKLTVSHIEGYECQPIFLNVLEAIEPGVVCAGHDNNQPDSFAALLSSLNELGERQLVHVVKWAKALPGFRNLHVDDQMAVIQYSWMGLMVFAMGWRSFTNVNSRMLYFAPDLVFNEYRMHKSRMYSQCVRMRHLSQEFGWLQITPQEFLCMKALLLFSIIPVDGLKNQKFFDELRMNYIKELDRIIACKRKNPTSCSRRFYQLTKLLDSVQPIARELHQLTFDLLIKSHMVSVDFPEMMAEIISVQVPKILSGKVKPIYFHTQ
test.details: LNCaP-AR-F876L AG reporter assay (agonist mode)
Format: cell-based
run.conditions: maximum % stimulation (agonist response) over the tested concentration range; read-out: LNCaP-AR-F876L AG MAX % Stim
quantity: Emax
// return the numeric value with its unit appended

# annotated cases, reported Emax shown
{"molecule": "CN1CCC(C)(Oc2ccc(N3C(=S)N(c4cnc(C#N)c(C(F)(F)F)c4)C(=O)C34CCC4)cc2)CC1 [Cpd 143]", "tgt": "F876L mutant Androgen Receptor (AR-F876L) (Homo sapiens (Human), UniProt P10275, F877L)", "Emax": "0.4%"}
{"molecule": "CC(=O)N1CCC(Cn2ncc3cc(N4C(=S)N(c5cnc(C#N)c(C(F)(F)F)c5)C(=O)C45CCC5)ccc32)CC1 [Cpd 124]", "tgt": "F876L mutant Androgen Receptor (AR-F876L) (Homo sapiens (Human), UniProt P10275, F877L)", "Emax": "0.5%"}

Query block: Give the measured Emax of CN1CCC(Oc2ccc(N3C(=S)N(c4cnc(C#N)c(C(F)(F)F)c4)C(=O)C34CCC4)cc2)C(F)(F)C1 (racemic) [Cpd 137] .
Result block: 0.9%

Query block: What about this molecule? N#Cc1ncc(N2C(=O)C3(CCC3)N(c3ccc(OC4CCNCC4)cc3)C2=S)cc1Cl [Cpd 44]
Result block: 0.1%

Query block: Could you do the same for CN1CCC(Oc2ccc(N3C(=S)N(c4cnc(C#N)c(C(F)(F)F)c4)C(=O)C34CCC4)cc2)CC12CCC2 (racemic) [Cpd 178] , please?
Result block: 0%

Query block: And N#Cc1ncc(N2C(=O)C3(CCC3)N(c3ccc(OC4CC5CC4CN5)cc3)C2=S)cc1C(F)(F)F (centres unmarked) [Cpd 150] ?
Result block: -0.2%

Query block: Let us now turn to CN1CC2CCC(C1)C2Oc1ccc(N2C(=S)N(c3cnc(C#N)c(C(F)(F)F)c3)C(=O)C23CCC3)cn1 (centres unmarked) [Cpd 147]
Result block: -0.1%

Query block: Then what about the molecule CC(C)(C)OC(=O)N1CCC12CC(Oc1ccc(N3C(=S)N(c4cnc(C#N)c(C(F)(F)F)c4)C(=O)C34CCC4)cn1)C2 (centres unmarked) [Cpd 153] ?
Result block: -0.1%

----------
tgt: wild-type Androgen Receptor (AR-wt) (Homo sapiens (Human), UniProt P10275)
Sequence (P10275 whole entry): as the sequence (P10275 whole entry F877L) above, with L877F counted along it
test.details: LNCaP-AR-wt ANT reporter assay (antagonist mode)
Format: cell-based
run.conditions: antagonist mode; pIC50 = −Log10(IC50 in Molar); read-out: LNCaP-AR-wt ANT pIC50 (converted)
quantity: IC50 (µM)
Just the number in µM, nothing appended.

These recorded examples may help you get a feel for the data.
{"compound": "CN1CC2CCC(C1)C2Oc1ccc(N2C(=S)N(c3cnc(C#N)c(C(F)(F)F)c3)C(=O)C23CCC3)cn1 (stereo not drawn) [Cpd 147]", "units.symbol": "µM", "measured.value": 0.224}
{"compound": "CC(C)(C)OC(=O)N1CCN(C(=O)c2ccc(N3C(=S)N(c4cnc(C#N)c(C(F)(F)F)c4)C(=O)C34CCC4)cc2)CC1 [Cpd 32]", "units.symbol": "µM", "measured.value": 2.14}
{"compound": "COc1ccc(N2C(=S)N(c3cnc(C#N)c(C(F)(F)F)c3)C(=O)C23CCC3)cn1 [Cpd 15]", "units.symbol": "µM", "measured.value": 0.24}

Query block: Given the entry C#CCN1CCC(Oc2ccc(N3C(=S)N(c4cnc(C#N)c(C(F)(F)F)c4)C(=O)C34CCC4)cc2)CC1 [Cpd 107] , report its measured IC50.
Result block: 0.0229

Query block: Let us now turn to CN1CC2(CC(Oc3ccc(N4C(=S)N(c5cnc(C#N)c(C(F)(F)F)c5)C(=O)C45CCC5)cc3)C2)C1 [Cpd 97]
Result block: 0.055

Query block: Do the same for N#Cc1ncc(N2C(=O)C3(CCC3)N(c3ccc(OC4CCCNCC4)cc3)C2=S)cc1C(F)(F)F (stereo not drawn) [Cpd 30] please
Result block: 0.708

Query block: Repeat for the following compound: N#Cc1ncc(N2C(=O)C3(CCC3)N(C3CCC(NC(=O)c4ccccc4)CC3)C2=S)cc1C(F)(F)F (stereo not drawn) [Cpd 134]
Result block: 0.759

Query block: Next record, please: N#Cc1ncc(N2C(=O)C3(CCC3)N(c3ccc4c(cnn4C4CCNCC4)c3)C2=S)cc1C(F)(F)F [Cpd 119]
Result block: 0.537

Query block: Field entry: CN1CCC[C@@H](CNC(=O)c2ccc(N3C(=S)N(c4cnc(C#N)c(C(F)(F)F)c4)C(=O)C34CCC4)cc2F)C1 [Cpd 200]
Result block: 0.708

Query block: Could you do the same for CN(C)C1(COc2ccc(N3C(=S)N(c4cnc(C#N)c(C(F)(F)F)c4)C(=O)C34CCC4)cc2)COC1 [Cpd 208] , please?
Result block: 0.871

Query block: Next compound up: N#Cc1ncc(N2C(=O)C3(CCC3)N(c3ccc(OCC4(N)COC4)cc3)C2=S)cc1C(F)(F)F [Cpd 145]
Result block: 0.178

----------
tgt: wild-type Androgen Receptor (AR-wt) (Homo sapiens (Human), UniProt P10275)
test.details: LNCaP-AR-wt AG reporter assay (agonist mode)
Assay type: cell-based
run.conditions: maximum % stimulation (agonist response) over the tested concentration range; read-out: LNCaP-AR-wt AG MAX % Stim
quantity: Emax (%)
I only need the number, in %, no unit after it.

{"compound": "Cn1cc(N2C(=S)N(c3cnc(C#N)c(C(F)(F)F)c3)C(=O)C23CCC3)ccc1=O [Cpd 133]", "tgt": "wild-type Androgen Receptor (AR-wt) (Homo sapiens (Human), UniProt P10275)", "quantity": "Emax", "measured.value": 0.7}

Query block: Name the reported Emax value associated with the compound N#Cc1ncc(N2C(=O)C3(CCC3)N(c3ccc(OC4CCN(CCCF)CC4)cc3)C2=S)cc1C(F)(F)F [Cpd 14]
Result block: 0.4

Query block: # repeat for N#Cc1ncc(N2C(=O)C3(CCC3)N(c3ccc(N4CCOCC4)cc3)C2=S)cc1C(F)(F)F [Cpd 69]
Result block: 0.2

Query block: Moving on to the next compound: COCCn1cc2cc(N3C(=S)N(c4cnc(C#N)c(Cl)c4)C(=O)C34CCC4)ccc2n1 [Cpd 169]
Result block: 0.2

Query block: What would you report for CNC(=O)N1CCC(CNC(=O)c2ccc(N3C(=S)N(c4cnc(C#N)c(C(F)(F)F)c4)C(=O)C34CCC4)cc2)CC1 [Cpd 73] ?
Result block: 1

Query block: Now the same for N#Cc1ncc(N2C(=O)C3(CCC3)N(c3ccc(OC4CCC(N)CC4)cc3)C2=S)cc1C(F)(F)F (stereo not shown) [Cpd 68]
Result block: 0.6

Query block: Same lookup for Cc1cc(N2C(=O)C3(CCC3)N(c3ccc(OC4CCN(CC(F)(F)F)CC4)nc3)C2=S)cnc1C#N [Cpd 62] , please.
Result block: 0.5

Query block: And CN1CCC(Cn2cc3cc(N4C(=S)N(c5cnc(C#N)c(C(F)(F)F)c5)C(=O)C45CCC5)ccc3n2)CC1 [Cpd 129] ?
Result block: 0.9

Query block: Next entry: CN1CC2CC1CC2Oc1ccc(N2C(=S)N(c3cnc(C#N)c(C(F)(F)F)c3)C(=O)C23CCC3)cn1 (stereo not shown) [Cpd 177]
Result block: 0.2

----------
Attribute: Emax
tgt: F876L mutant Androgen Receptor (AR-F876L) (Homo sapiens (Human), UniProt P10275, F877L)
test.details: LNCaP-AR-F876L AG reporter assay (agonist mode)
Type: cell-based
run.conditions: maximum % stimulation (agonist response) over the tested concentration range; read-out: LNCaP-AR-F876L AG MAX % Stim
Numbers only here, please. The scale is %.

Below are worked cases with known answers.
{"molecule": "N#Cc1ncc(N2C(=O)C3(CCC3)N(c3ccc(OC4CCNC5(CCC5)C4)cc3)C2=S)cc1C(F)(F)F (racemic)", "measured.value": -0.1}
{"molecule": "COC(=O)CN1CCC(Oc2ccc(N3C(=S)N(c4cnc(C#N)c(C(F)(F)F)c4)C(=O)C34CCC4)cc2)CC1", "measured.value": 2.8}
{"molecule": "N#Cc1ncc(N2C(=O)C3(CCC3)N(c3ccc(O[C@@H]4CCN[C@@H](C(F)(F)F)C4)cc3)C2=S)cc1C(F)(F)F (racemic)", "measured.value": 0.7}

Query block: # Emax lookup, item N#Cc1ncc(N2C(=O)C3(CCC3)N(c3ccc4nn(C5CCNCC5)cc4c3)C2=S)cc1Cl
Result block: 0.2

Query block: N#Cc1ncc(N2C(=O)C3(CCC3)N(c3ccc(OC4CCN(CCO)CC4)cc3)C2=S)cc1Cl , same question.
Result block: 1.4

This collection of values is drawn from patent US10981926B2.
